Assay: NCI Yeast Anticancer Drug Screen. Data for the sgs1 mgt1 strain (AID 161);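 further: 0% = growth of cultures given vehicle only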
Conditions: S. cerevisiae sgs1 mgt1 strain, at 50.0 µM, active compounds read high
The panel holds about 79,000 compounds, 15% with a hit somewhere; the sample as a whole holds those more often.
Recorded Endpoint: growth inhibition (%)
Record the value in %, omitting the unit from your answer.

*Q* Which growth inhibition is listed for CC(C)(C)N(OC(=O)c1ccccc1)C(=O)c1ccccc1 ?
*A* 0.4

*Q* # input molecule: COC1OC2COC(c3ccccc3)OC2C(N=[N+]=[N-])C1O (stereo unspecified) ; wanted: its growth inhibition
*A* -4.9

*Q* Fill blank: measured growth inhibition of the molecule CC1=C(O)C(=O)C(C2=C(O)C(=O)C(C)=C(O)C2=O)=C(O)C1=O is ____.
*A* 24.4

*Q* Which growth inhibition value belongs to O=C1CCCC(CCc2ccccc2)O1 (stereo unspecified) ?
*A* 1.3

*Q* # lookup: growth inhibition of CCOC(=O)NC(=O)c1cn(CCN2CCN(C(=O)CCCCCCCCCCNc3ncnc4nc[nH]c34)CC2)c(=O)[nH]c1=O
*A* -12.8

*Q* Give the measured growth inhibition of CCN(CCO)C(=O)C1(c2ccccc2)CCCCC1 .
*A* 9.35

*Q* Give its growth inhibition value. Item: CC(C)CC(N)C(=O)NC(Cc1cc2ccccc2[nH]1)C(=O)O (stereo unspecified)
*A* 7.3

*Q* Entry under review: N#CCCc1c(O)ccc2ccccc12 . Reported growth inhibition?
*A* 10.1

*Q* Given Cc1ccc(OCC(O)CN2CCN(c3ccc(C)cc3)CC2)cc1 (stereo unspecified) , state its recorded growth inhibition.
*A* 36

*Q* Could you tell me which growth inhibition is on file for CCOc1ccc(NC(=O)c2cccc(C(=O)Nc3ccc(OCC)cc3)c2)cc1 ?
*A* -8.15

*Q* Value lookup for growth inhibition; key = COc1ccccc1P(=O)(CCP(=O)(c1ccccc1)c1ccccc1OC)c1ccccc1 (stereo unspecified)
*A* 13.3
